# Format: in vivo, C57BL/6J mice
# experimental.conditions: male, C57BL/6J, mouse, plasma, ip, 50 mg/kg

| compound | readout.units | Tmax |
| --- | --- | --- |
| O=C(CCCCCCC(=O)Nc1ccccc1)NO [vorinostat, suberoylanilide hydroxamic acid] | min | 15 |

====

# Assay type: in vivo, C57BL/6J mice
# experimental.conditions: male, C57BL/6J, mouse, brain, ip, 50 mg/kg
attribute.measured: AUC(0-t) (ng·h/mL)

| compound | attribute.measured | quantitative.readout |
| --- | --- | --- |
| O=C(CCCCCCC(=O)Nc1ccccc1)NO [vorinostat, suberoylanilide hydroxamic acid] | AUC(0-t) | 1240 |
